// data source = ChEMBL document CHEMBL3232928

The entries below are paired with their reported logD at 1 h.
Assay: Octanol-phosphate buffer partition coefficient, log D of the compound at pH 7.4 after 1 hr by shake flask method
Type: physicochemical

>  <STRUCTURE_SMILES>
CCNC(=O)Nc1cc(-c2nc(C(C)(C)C)cs2)c(-c2cncc(C(=O)O)c2)cn1

>  <logD at 1 h>
0.12

$$$$
>  <STRUCTURE_SMILES>
CCNC(=O)Nc1cc(-c2nc(C(F)(F)F)cs2)c(-c2cncc(-c3nc(C)no3)c2)cn1

>  <logD at 1 h>
3.4

$$$$
>  <STRUCTURE_SMILES>
CCNC(=O)Nc1cc(-c2noc(C)n2)c(-c2cncc(C(=O)O)c2)cn1

>  <logD at 1 h>
-2.1

$$$$

Could you now consider this next compound?
Return logD at 1 h (reported value) for this compound: CCNC(=O)Nc1cc(Cl)c(-c2cncc(C(=O)O)c2)cn1
-1.1

====

Assay: Octanol-phosphate buffer partition coefficient, log D of the compound at pH 7.4 after 1 hr by shake flask method
Type: physicochemical
The reader will find reported logD at 1 h values listed item by item below.

Completed entries (count: 5):
>  <STRUCTURE_SMILES>
CCNC(=O)Nc1cc(-c2nc(C(F)(F)F)cs2)c(-c2cncc(-c3nnn[nH]3)c2)cn1

>  <logD at 1 h>
-0.38

$$$$
>  <STRUCTURE_SMILES>
CCNC(=O)Nc1cc(-c2nc(C(F)(F)F)cs2)c(-c2nc3cccc(C(=O)O)c3s2)cn1

>  <logD at 1 h>
0.73

$$$$
>  <STRUCTURE_SMILES>
CCNC(=O)Nc1cc(-c2nc(C(F)(F)F)cs2)c(-c2cncc(-c3n[nH]c(=O)o3)c2)cn1

>  <logD at 1 h>
2

$$$$
>  <STRUCTURE_SMILES>
CCNC(=O)Nc1cc(-c2nc(C(F)(F)F)cs2)c(-c2cncc(-c3c(C)noc3C)c2)cn1

>  <logD at 1 h>
3.5

$$$$
>  <STRUCTURE_SMILES>
CCNC(=O)Nc1cc(-c2ccccc2)c(-c2cncc(C(=O)O)c2)cn1

>  <logD at 1 h>
-0.31

$$$$

Output measured logD at 1 h for this item: CCNC(=O)Nc1cc(-c2nc(C(F)(F)F)cs2)c(-c2cncc(C(=O)O)c2)cn1
-0.62

Give the value of logD at 1 h reported for the following: CCNC(=O)Nc1cc(-c2nc(C(F)(F)F)cs2)c(-c2cncc(C#N)c2)cn1
2.8

Kindly indicate its recorded logD at 1 h. Item: CCNC(=O)Nc1cc(-c2nc(C(F)(F)F)cs2)c(-c2cncc(/C(N)=N/O)c2)cn1
2.2

Give the value of logD at 1 h reported for the following: CCNC(=O)Nc1cc(-c2nc(C(F)(F)F)cs2)c(-c2cncc(C(N)=O)c2)cn1
2

====

compounds and their reported MIC
System: Moraxella catarrhalis
Assay: Antibacterial activity against wild type Moraxella catarrhalis ATCC 43617 assessed as growth inhibition after 18 to 24 hrs by CLSI broth microdilution method
Type: functional
Record the value in µg/mL, omitting the unit from your answer.

>  <STRUCTURE_SMILES>
CCNC(=O)Nc1cc(-c2nc(C(C)(C)C)cs2)c(-c2cncc(C(=O)O)c2)cn1

>  <UNIT_ANNOTATION>
µg/mL

>  <VALUE>
43

$$$$

Provide one value: measured MIC of CCNC(=O)Nc1cc(-c2nc(C(F)(F)F)cs2)c(-c2ncc(C(=O)O)s2)cn1
44

Return MIC (reported value) for this compound: CCNC(=O)Nc1cc(-c2nc(C(F)(F)F)cs2)c(-c2nc3cccc(C(=O)O)c3s2)cn1
1.6

Look up MIC of CCNC(=O)Nc1ccc(-c2nc3cccc(C(=O)O)c3s2)cn1 and report it.
8
